Molecular target: human GPR120 (Homo sapiens (Human))
Sequence (Q5NUL3 whole entry): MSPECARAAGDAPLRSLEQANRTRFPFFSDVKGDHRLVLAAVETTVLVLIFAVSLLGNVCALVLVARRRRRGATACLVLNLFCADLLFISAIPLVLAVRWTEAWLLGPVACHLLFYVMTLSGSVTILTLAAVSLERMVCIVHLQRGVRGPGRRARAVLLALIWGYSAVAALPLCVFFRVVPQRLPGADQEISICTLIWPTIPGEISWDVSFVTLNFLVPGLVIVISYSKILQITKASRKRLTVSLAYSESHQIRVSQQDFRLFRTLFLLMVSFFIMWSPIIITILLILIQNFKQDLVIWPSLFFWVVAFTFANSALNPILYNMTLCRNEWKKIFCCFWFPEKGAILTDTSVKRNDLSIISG
Test: FLIPR assay: intracellular calcium in CHO cells expressing human GPR120
Assay type: cell-based
Conditions: FLIPR calcium assay, CHO cells expressing human GPR120, agonist action
pEC50: −log10 of the molar value.
Binary classification by pEC50, with 6 as an inclusive lower bound for yes (1); all other cases are no (0).

Query block: hey, is pEC50 for this one >= 6? "Cc1cc(Cl)cc(N2CCC3(CCC(CC(=O)O)CC3)CC2)c1C#N"
Result block: no (0)

Query block: Can "O=C(O)CCCC1CCC2(CC1)CCN(c1cc(OC(F)(F)F)ccc1Cl)CC2" be said to have pEC50 at or above 6?
Result block: no (0)

Query block: Test whether the compound "O=C(O)CC1CCC2(CC1)CCN(c1cc(C(F)(F)F)cc(C(F)(F)F)c1)CC2" records pEC50 of 6 or higher.
Result block: no (0)

Query block: # check: pEC50 of "CSc1ccc(OC(F)(F)F)cc1N1CCC2(CCC(CC(=O)O)CC2)CC1" is greater than or equal to 6
Result block: no (0)

Query block: // inclusive: pEC50 at least 6? input: "O=C(O)CC1CCC2(CC1)CCN(c1cc(Cl)cc(F)c1F)CC2"
Result block: no (0)

Query block: Check this compound for pEC50 at or above 6: CC1CC(CC(=O)O)CCC12CCN(c1cc(OC(F)(F)F)ccc1Cl)CC2 (single isomer, unassigned) [Example 89b]
Result block: no (0)

Query block: # bool: pEC50 of "O=C(O)C[C@@H]1CCC2(CCN(c3cc(OC4CCC4)ccc3Cl)CC2)OC1" >= 6
Result block: no (0)

Query block: Test whether the compound "CC(C)c1cc(C#N)cc(N2CCC3(CCC(CC(=O)O)CC3)CC2)c1" records pEC50 of 6 or higher.
Result block: no (0)

Query block: Hi team, for "Cc1cc(C#N)cc(N2CCC3(CCC(CC(=O)O)CC3)CC2)c1" , is the recorded pEC50 at or above 6?
Result block: no (0)

Query block: State whether the measured pEC50 reaches 6, counting equality as reaching it, for "O=C(O)C[C@@H]1CCC2(CCN(c3cc(OC4CCC4)ccc3F)CC2)OC1"
Result block: no (0)

Query block: Hi team, for COc1cc(Cl)cc(N2CCC3(CC2)CC(CC(=O)O)CO3)c1 (centres unmarked) , is the recorded pEC50 at or above 6?
Result block: no (0)

Query block: Please check the record CC1CC(CC(=O)O)CCC12CCN(c1cc(OC(F)(F)F)ccc1Cl)CC2 (single isomer, unassigned) [Example 89a] and state if its pEC50 is at or above 6.
Result block: no (0)

Query block: Test whether the compound "COCCOc1cc(Cl)cc(N2CCC3(CCC(CC(=O)O)CC3)CC2)c1" records pEC50 of 6 or higher.
Result block: no (0)

Query block: Hello, I need to know if "CC(C)Oc1ccc(Cl)c(N2CCC3(CCC(CC(=O)O)CC3)CC2)c1" has measured pEC50 not below 6. Thanks!
Result block: yes (1)

Query block: Item CC(C(=O)O)C1CCC2(CC1)CCN(c1cc(OC(F)(F)F)ccc1Cl)CC2 (centres unmarked) with pEC50 of 6 or above?
Result block: no (0)

Query block: Given "O=C(O)CC1CCC2(CC1)CCN(c1cc(C(F)F)cc(C(F)F)c1)CC2" , state whether its pEC50 is at least 6.
Result block: no (0)

Query block: Has "COc1cc(OC(F)(F)F)cc(N2CCC3(CCC(CC(=O)O)CC3)CC2)c1" a recorded pEC50 greater than or equal to 6?
Result block: yes (1)

Query block: # bool: pEC50 of "N#Cc1cc(OC(F)(F)F)cc(N2CCC3(CCC(CC(=O)O)CC3)CC2)c1" >= 6
Result block: yes (1)

Query block: Is reported pEC50 greater than or equal to 6 here: "O=C(O)CCCC1CCC2(CC1)CCN(c1cc(OC3CCC3)ccc1Cl)CC2"
Result block: no (0)

Query block: Is it the case that "CC(C)Oc1cc(Cl)cc(N2CCC3(CCC(CC(=O)O)CC3)CC2)c1" has pEC50 reaching or exceeding 6?
Result block: yes (1)

Query block: Hi, just wondering whether "Cc1cccc(N2CCC3(CCC(CC(=O)O)CC3)CC2)c1" shows pEC50 of 6 or higher.
Result block: no (0)

Query block: Is it the case that "O=C(O)CC1CCC2(CC1)CCN(c1cc(C(F)(F)F)ccc1CO)CC2" has pEC50 reaching or exceeding 6?
Result block: no (0)

Query block: Does the compound "Cc1cc(C)c(Cl)c(N2CCC3(CCC(CC(=O)O)CC3)CC2)c1" have recorded pEC50 that is 6 or more?
Result block: no (0)

Query block: hey, is pEC50 for this one >= 6? "CC1(C)Cc2cc(Cl)cc(N3CCC4(CCC(CC(=O)O)CC4)CC3)c2O1"
Result block: no (0)

Query block: API: above_or_equal(metric=pEC50, cutoff=6) for item "Cc1ccc(C#N)c(N2CCC3(CCC(CC(=O)O)CC3)CC2)c1"
Result block: no (0)

Query block: Record "CSc1nc(N2CCC3(CCC(CC(=O)O)CC3)CC2)cc(C(F)(F)F)n1" ; criterion: pEC50 no lower than 6. Met?
Result block: no (0)

Query block: Tell me whether pEC50 is at least 6 here: "CC(C)Oc1cc(F)cc(N2CCC3(CCC(CC(=O)O)CC3)CC2)c1"
Result block: no (0)

Query block: Determine whether measured pEC50 meets or exceeds 6 for "Cc1ccc(C#N)cc1N1CCC2(CCC(CC(=O)O)CC2)CC1"
Result block: no (0)

Query block: Determine whether this compound has pEC50 no lower than 6: "N#Cc1ccc(OC(F)(F)F)cc1N1CCC2(CCC(CC(=O)O)CC2)CC1"
Result block: yes (1)

Query block: For this compound, is measured pEC50 6 or higher? "Cc1cc(F)cc(N2CCC3(CCC(CC(=O)O)CC3)CC2)c1"
Result block: no (0)
